- experimental system: human TLR9 (Homo sapiens)
- Construct: host or cells: HEK-Blue cells (HEK293-derived reporter line)
- Sequence (Q9NR96 26-1032): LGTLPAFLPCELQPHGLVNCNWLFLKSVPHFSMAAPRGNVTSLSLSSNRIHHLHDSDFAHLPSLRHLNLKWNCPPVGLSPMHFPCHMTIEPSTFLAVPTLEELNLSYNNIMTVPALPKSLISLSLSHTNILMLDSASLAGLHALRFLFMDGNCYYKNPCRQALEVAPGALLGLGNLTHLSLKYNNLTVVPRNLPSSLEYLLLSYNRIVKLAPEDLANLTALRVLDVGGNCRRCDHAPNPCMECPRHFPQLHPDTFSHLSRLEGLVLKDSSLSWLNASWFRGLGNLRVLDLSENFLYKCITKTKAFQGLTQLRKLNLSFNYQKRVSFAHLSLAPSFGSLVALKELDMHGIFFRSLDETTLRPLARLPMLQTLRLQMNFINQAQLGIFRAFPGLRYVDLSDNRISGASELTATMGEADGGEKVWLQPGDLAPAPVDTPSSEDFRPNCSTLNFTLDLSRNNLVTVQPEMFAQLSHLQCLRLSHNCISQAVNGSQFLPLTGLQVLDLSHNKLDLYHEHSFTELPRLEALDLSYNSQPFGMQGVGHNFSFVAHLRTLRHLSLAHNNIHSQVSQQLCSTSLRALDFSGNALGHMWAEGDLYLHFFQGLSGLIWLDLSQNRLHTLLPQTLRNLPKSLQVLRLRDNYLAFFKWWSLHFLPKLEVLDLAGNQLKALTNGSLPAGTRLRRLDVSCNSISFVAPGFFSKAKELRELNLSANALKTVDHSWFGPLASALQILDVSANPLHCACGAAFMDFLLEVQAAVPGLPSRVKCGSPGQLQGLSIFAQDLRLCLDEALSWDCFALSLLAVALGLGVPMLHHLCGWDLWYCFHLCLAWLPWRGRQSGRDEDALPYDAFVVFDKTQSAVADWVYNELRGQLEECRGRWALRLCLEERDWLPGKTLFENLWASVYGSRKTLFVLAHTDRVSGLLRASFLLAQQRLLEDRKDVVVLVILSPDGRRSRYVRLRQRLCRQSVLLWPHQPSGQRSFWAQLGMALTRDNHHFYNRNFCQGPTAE
- procedure text: TLR9 inhibition reporter assay (HEK-Blue cells, secreted embryonic alkaline phosphatase reporter)
- Format: cell-based
- condition summary: HEK-Blue cells overexpressing human TLR9, stimulated with ODN2006 5 nM; read-out: TLR 9 IC50
result type: IC50 (µM)

{"columns": ["chemical structure", "experimental system", "IC50 / µM"],
 "data": [
  ["Cn1c(-c2ccc(S(C)(=O)=O)cc2)nc2cc(F)c(C3CCN(C4CCN(C5CCC5)CC4)CC3)cc21", "human TLR9 (Homo sapiens)", 0.29]
]}

A = COCCN1CCC(N2CCC(c3cc4c(cc3F)nc(-c3ccc(S(C)(=O)=O)cc3)n4C)CC2)CC1
B = COc1ccc(-c2nc3c(C)cc(C4CCN(C5CCN(C(C)C)CC5)CC4)cc3n2C)cc1OC
Higher IC50 between A and B ? Answer by quoting the chosen item's label.
A
(A: 0.407 µM, B: 0.02 µM)

====

- experimental system: human TLR7 (Homo sapiens, UniProt Q9NYK1)
- Sequence (Q9NYK1 27-1049): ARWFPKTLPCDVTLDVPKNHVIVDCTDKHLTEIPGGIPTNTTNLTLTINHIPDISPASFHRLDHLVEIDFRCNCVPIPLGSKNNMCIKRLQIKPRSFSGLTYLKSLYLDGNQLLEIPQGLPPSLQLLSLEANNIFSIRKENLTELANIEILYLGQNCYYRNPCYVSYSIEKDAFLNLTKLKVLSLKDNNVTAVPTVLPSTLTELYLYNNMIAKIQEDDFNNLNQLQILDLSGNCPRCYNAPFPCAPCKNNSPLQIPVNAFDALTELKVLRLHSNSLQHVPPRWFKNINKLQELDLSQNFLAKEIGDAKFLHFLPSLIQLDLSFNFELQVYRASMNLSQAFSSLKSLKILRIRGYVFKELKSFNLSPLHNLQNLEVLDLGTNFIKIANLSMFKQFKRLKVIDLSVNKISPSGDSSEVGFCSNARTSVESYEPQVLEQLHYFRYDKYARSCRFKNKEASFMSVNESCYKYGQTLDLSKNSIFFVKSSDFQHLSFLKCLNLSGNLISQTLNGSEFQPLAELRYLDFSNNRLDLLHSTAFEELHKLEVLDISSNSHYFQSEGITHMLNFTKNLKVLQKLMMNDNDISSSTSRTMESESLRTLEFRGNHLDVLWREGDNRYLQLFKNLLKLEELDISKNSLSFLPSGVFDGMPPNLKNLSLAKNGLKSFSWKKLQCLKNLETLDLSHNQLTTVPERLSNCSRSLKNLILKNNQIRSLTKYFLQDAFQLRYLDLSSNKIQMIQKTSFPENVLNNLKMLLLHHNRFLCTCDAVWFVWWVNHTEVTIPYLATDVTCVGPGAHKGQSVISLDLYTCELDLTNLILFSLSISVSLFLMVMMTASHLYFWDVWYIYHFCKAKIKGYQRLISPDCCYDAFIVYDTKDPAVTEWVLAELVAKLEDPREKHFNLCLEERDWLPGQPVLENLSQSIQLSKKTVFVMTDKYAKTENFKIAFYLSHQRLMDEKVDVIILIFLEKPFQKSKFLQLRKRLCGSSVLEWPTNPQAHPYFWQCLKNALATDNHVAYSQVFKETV
- procedure text: TLR7 inhibition reporter assay (HEK-Blue cells, secreted embryonic alkaline phosphatase reporter)
- condition summary: HEK-Blue cells overexpressing human TLR7, stimulated with gardiquimod 7.5 μM; read-out: TLR 7 IC50
pIC50: −log10 of the molar value.
The following compounds are listed with their measured pIC50 values.

Look up pIC50 for this compound: Cn1c(-c2ccc(S(C)(=O)=O)cc2)nc2cc(C3CCN(C4CCN(C5CCC5)CC4)CC3)c(F)cc21 [Example 243]
< 4.30

Consider the compound CC(C)CN1C2CCC1CC(N1CCC(c3ccc4c(nc(-c5ccc(S(C)(=O)=O)cc5)n4C)c3F)CC1)C2 (single isomer, unassigned) [Example 189] and give its measured pIC50.
< 4.30

====

- experimental system: human TLR9 (Homo sapiens)
- Construct: host or cells: HEK-Blue cells (HEK293-derived reporter line)
- procedure text: TLR9 inhibition reporter assay (HEK-Blue cells, secreted embryonic alkaline phosphatase reporter)
- Format: cell-based
- condition summary: HEK-Blue cells overexpressing human TLR9, stimulated with ODN2006 5 nM; read-out: TLR 9 IC50
- From the text: TLR7/8/9 Inhibition Reporter Assays HEK-Blue™-cells (Invivogen) overexpressing human TLR7, TLR8 or TLR9 receptors were used for screening inhibitors of these receptors using an inducible SLAP (secreted embryonic alkaline phosphatase) reporter gene under the control of the […] minimal promoter fused to five NF-κB and AP-1-binding sites. […]
result type: IC50 (nM)

{"columns": ["compound", "value observed"],
 "data": [
  ["COc1cc(-c2nc3c(C)cc(C4CCN(C5CC6CCC(C5)N6C5CCC5)CC4)cc3n2C)cn2ncnc12 (single isomer, unassigned) [Example 356]", 41]
]}

I = Cc1cc(-c2cc(F)cc(CN3CCC(N4CCC4)CC3)c2)cc2c1nc(-c1ccc(S(C)(=O)=O)cc1)n2C
II = COCCN1C2CCC1CC(N1CCC(c3cc(C)c4nc(-c5ccc(OC)c(OC)c5)n(C)c4c3)CC1)C2 (single isomer, unassigned) [Example 168]
Quick one: lower IC50, I or II ? // output: label of the selected item
II
(II: 51 nM, I: 133 nM)

1 = CS(=O)(=O)c1ccc(-c2nc3ccc(C4CCN(C5CCN(CC6COC6)CC5)CC4)c(F)c3[nH]2)cc1
2 = CC(C)N1CCCC(N2CCC(c3cc(F)c4nc(-c5ccc(S(C)(=O)=O)cc5)n(C)c4c3)CC2)CC1 (single isomer, unassigned) [Example 294]
3 = COCCN1CCC(N2CCC(c3ccc4nc(-c5ccc(S(C)(=O)=O)cc5)n(C)c4c3F)CC2)CC1
// ascending sort on recorded IC50 Reply: labels, ordered per the request.
2, 1, 3

A = Cc1cc(C2CCN(C3CCN(C4CCC4)CC3)CC2)cc2c1nc(-c1ccc(S(C)(=O)=O)c(F)c1)n2C
B = Cc1cc(C2CCN(C3CC4CCC(C3)N4C3CCC3)CC2)cc2c1nc(-c1ccc(S(C)(=O)=O)cc1)n2C (single isomer, unassigned) [Example 152]
C = CC(C)CN1CCC(N2CCC(c3ccc4nc(-c5ccc(S(C)(=O)=O)cc5)n(C)c4c3F)CC2)CC1
Highest IC50 first, then in falling order down to the smallest. Quick reminder: the answer is the labels in the order asked.
C, B, A

====

- experimental system: human TLR9 (Homo sapiens, UniProt Q9NR96)
- Construct: host or cells: HEK-Blue cells (HEK293-derived reporter line)
- Sequence (Q9NR96 26-1032): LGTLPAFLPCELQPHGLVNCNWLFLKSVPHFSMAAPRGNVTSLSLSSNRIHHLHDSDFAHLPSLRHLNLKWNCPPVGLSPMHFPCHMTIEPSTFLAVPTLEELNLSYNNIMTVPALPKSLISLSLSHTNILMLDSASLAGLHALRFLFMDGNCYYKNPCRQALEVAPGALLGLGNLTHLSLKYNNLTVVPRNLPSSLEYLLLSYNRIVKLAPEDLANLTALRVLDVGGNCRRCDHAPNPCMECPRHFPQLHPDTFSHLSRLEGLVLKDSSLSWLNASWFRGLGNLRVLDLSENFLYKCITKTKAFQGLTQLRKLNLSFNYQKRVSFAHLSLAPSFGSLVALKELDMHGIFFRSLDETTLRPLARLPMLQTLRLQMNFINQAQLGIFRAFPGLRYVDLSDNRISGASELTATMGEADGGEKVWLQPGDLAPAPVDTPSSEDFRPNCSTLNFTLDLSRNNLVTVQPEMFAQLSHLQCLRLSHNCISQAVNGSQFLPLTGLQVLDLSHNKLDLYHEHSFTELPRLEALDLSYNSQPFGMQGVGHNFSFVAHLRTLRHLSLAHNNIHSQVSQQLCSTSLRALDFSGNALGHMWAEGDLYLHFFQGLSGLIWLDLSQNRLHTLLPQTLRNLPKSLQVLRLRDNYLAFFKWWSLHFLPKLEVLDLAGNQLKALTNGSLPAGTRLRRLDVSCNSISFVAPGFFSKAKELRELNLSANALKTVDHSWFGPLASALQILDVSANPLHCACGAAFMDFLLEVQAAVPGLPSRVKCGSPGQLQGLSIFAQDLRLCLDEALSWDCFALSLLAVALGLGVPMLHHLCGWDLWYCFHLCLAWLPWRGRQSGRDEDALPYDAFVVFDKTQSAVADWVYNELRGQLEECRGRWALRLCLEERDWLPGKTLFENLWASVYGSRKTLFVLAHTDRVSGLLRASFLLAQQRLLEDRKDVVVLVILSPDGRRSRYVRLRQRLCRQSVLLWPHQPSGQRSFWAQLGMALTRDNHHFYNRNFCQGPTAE
- procedure text: TLR9 inhibition reporter assay (HEK-Blue cells, secreted embryonic alkaline phosphatase reporter)
- Format: cell-based
- condition summary: HEK-Blue cells overexpressing human TLR9, stimulated with ODN2006 5 nM; read-out: TLR 9 IC50
pIC50: −log10 of the molar value.
result type: pIC50

P = Cc1cc(-c2ccc(CN3C[C@H]4CN(C)C[C@H]4C3)cc2)cc2c1nc(-c1ccc(S(C)(=O)=O)cc1)n2C
Q = CC(C)CN1CCCC(N2CCC(c3cc(F)c4nc(-c5ccc(S(C)(=O)=O)cc5)n(C)c4c3)CC2)CC1 (stereo not drawn) [Example 297]
Pick one: P or Q . Which has the bigger pIC50 number? To answer, give the label that identifies your chosen option.
Q
(Q: 7.64, P: 6.89)

A = Cc1cc(-c2cccc(CN3CCC(N4CCCC4)CC3)c2)cc2c1nc(-c1ccc(S(C)(=O)=O)cc1)n2C1CC1
B = COCCN1C2CCC1CC(N1CCC(c3ccc4nc(-c5ccc(S(C)(=O)=O)cc5)n(C)c4c3F)CC1)C2 (single isomer, unassigned) [Example 276]
C = CC(C)CN1C2CCC1CC(N1CCC(c3cc4c(cc3F)nc(-c3ccc(S(C)(=O)=O)cc3)n4C)CC1)C2 (single isomer, unassigned) [Example 229]
Ordering: ascending pIC50. Answer format: list of labels, ordered as asked.
B, C, A
